Known inhibition of a selection of molecules
assay: M. tuberculosis H37Rv growth inhibitors, H37Rv strain (AID 1626); details: hits give high values, concentration not given here;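 also: bacteria incubated seven days before Alamar blue readout; 0% = bacteria only wells and 100% = bacteria with antibiotic wells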
The campaign covered roughly 220,000 compounds. About 2,000 (0.91%) were called active. Inconclusive results (about 2%) are left out. These entries were drawn from the full list. Measured potencies and affinities stand elsewhere.
Respond numerically; units are % and should not be typed.

Past entries and their recorded results:
Cc1csc(Nc2cccc3ccccc23)n1 6.85
CCn1c(NN=O)nc2ccccc21 3.63
Nc1nc(SCC(=O)Nc2ccc(Br)cc2F)n[nH]1 0.13
O=C(NCCN1CCN(c2ccccc2)CC1)c1cccn2c(=O)c3cc(Cl)ccc3nc12 8.3
CCOc1cc(/C=N/NC(=O)CSc2nncn2C)ccc1OCc1cccc(C)c1 5.11

# next molecule below
Cc1nn(C)c(C(=O)Nc2ccn(Cc3ccccc3F)n2)c1[N+](=O)[O-] yielded inhibition of -2.14
